assay: chemical genetic growth profiling, strain panel (AID 1159580);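 note: tested at 20 µM; growth read once vehicle control cultures reached saturation at 30 °C; 1 = growth at the plate median or of vehicle wells; lower values mean less growth of the strain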; conditions: S. cerevisiae deletion strains, growth OD, locus YNL207W, strain RIO2
The whole screen tested about 5,500 compounds, of which about 2,000 (36%) were called active. Not shown: some 18% with an inconclusive outcome. Cut-off read from the data, not from the text of the source: active = normalized growth mostly below about 0.91 (no sharp cut-off); inconclusive = no clear call, values can overlap the other calls; inactive = mostly above about 0.92. The list shows a part of the results.
Select the correct class. Options are active, inactive and nothing else.

N#C/C(=N/Nc1ccccc1Cl)S(=O)(=O)c1ccc(Cl)cc1: inactive
Cc1ccccc1C(=O)N1CCc2c([nH]c3ccccc23)C1C(F)(F)F (stereo unspecified): inactive

[Q] Tell me the assay call for Cn1c([N+](=O)[O-])cnc1/C=C(\C#N)C(=O)Nc1ccc(F)cc1 please.
[A] active

[Q] Tell me the assay call for N#Cc1c(Cl)c(Cl)c(Cl)c(Cl)c1C#N please.
[A] active

[Q] Tell me the assay call for O=C(Nc1cc(Cl)cc(Cl)c1)Nc1cc(-c2ccco2)[nH]n1 please.
[A] inactive

[Q] Tell me the assay call for C/C(=N/NC(N)=S)c1ccc(Oc2c(Cl)cncc2Cl)cc1 please.
[A] inactive

[Q] Tell me the assay call for O=C(CCN1CCCCC1)c1ccc(-c2ccccc2)cc1 please.
[A] inactive

[Q] Tell me the assay call for O=C(Oc1cc(Cl)c(Cl)cc1Cl)C1c2ccccc2Oc2ccccc21 please.
[A] inactive

[Q] Tell me the assay call for Cc1c(C(=O)N2CCCCC2)cc(-c2ccccc2)n1-c1ccccc1 please.
[A] inactive

[Q] Tell me the assay call for NC(N)=Nc1nc(-c2cc(Cl)sc2Cl)cs1 please.
[A] inactive

[Q] Tell me the assay call for C=CC(=O)N1CCc2cc([N+](=O)[O-])ccc21 please.
[A] active

----------
assay: chemical genetic growth profiling, strain panel (AID 1159580); conditions: S. cerevisiae deletion strains, growth OD, locus YOR144C, strain elg1, hits give low values
Hit rate of the full screen: of about 5,500 compounds, about 2,000 (36%) were called active. Another 18% or so got no clear call; they are omitted. The list shows a part of the results.
measurement_type: normalized growth
Format: numeric value only, no unit, no commentary.

Please review the following examples before continuing.
CCOC(=O)/C=C(\C)OP(=O)(OC)OC: 0.997
COc1ccc([C@@H]2CC(=O)c3c(O)cc(O)cc3O2)cc1O: 0.999
C=C1CC[C@H](O)C/C1=C/C=C1\CCC[C@]2(C)C([C@H](C)/C=C/[C@H](C)C(C)C)CC[C@@H]12 (stereo partly drawn): 0.989
O=[N+]([O-])O[C@H]1CO[C@H]2[C@@H]1OC[C@H]2O[N+](=O)[O-]: 1.02
O=C(/C=C/C=C/c1ccc2c(c1)OCO2)N1CCCCC1: 0.948

Entry NC(N)=Nc1nc(CSCCC(N)=NS(N)(=O)=O)cs1 , normalized growth reported as 1.01

Entry C[C@@H]1O[C@@H](O[C@H]2[C@@H](Oc3cc(O)c4c(c3)O[C@H](c3ccc(O)cc3)CC4=O)O[C@H](CO)[C@@H](O)[C@@H]2O)[C@H](O)[C@H](O)[C@H]1O , normalized growth reported as 1

Entry COc1ccc2c(c1)OC[C@@H](Cc1ccc(OC)c(OC)c1)[C@@H]2O , normalized growth reported as 0.987

Entry CC[C@@H](CO)NCCN[C@@H](CC)CO , normalized growth reported as 0.996

Entry C=C(C)/C=C1/C=CC(=O)C(C)=C1 , normalized growth reported as 0.646

Entry CCC1(c2ccccc2)C(=O)NCNC1=O , normalized growth reported as 0.992

Entry Cc1c(N(C)C)c(=O)n(-c2ccccc2)n1C , normalized growth reported as 0.992

Entry CC1(C)S[C@@H]2[C@H](NC(=O)[C@H](NC(=O)N3CCNC3=O)c3ccccc3)C(=O)N2C1C(=O)O (stereo partly drawn) , normalized growth reported as 1.01

----------
test: chemical genetic growth profiling, strain panel (AID 1159580); conditions: S. cerevisiae deletion strains, growth OD, locus YJL129C, strain trk1, hits give low values
In all, about 5,500 compounds went through this assay and about 2,000 (36%) were called active. Roughly 18% stayed inconclusive and do not appear here. This is one part of the list.
Binning rule for recorded normalized growth: Low (below 0.9), Mid (0.9 to below 1), High (1 or more)

Before answering, review these 5 worked examples.
CCSC(=N)N: High
C[C@@H]1O[C@@H](O[C@H]2[C@@H](Oc3cc(O)c4c(c3)O[C@H](c3ccc(O)cc3)CC4=O)O[C@H](CO)[C@@H](O)[C@@H]2O)[C@H](O)[C@H](O)[C@H]1O: Mid
CC(C)(N=NC(C)(C)C(=N)N)C(=N)N: High
Cc1cc(C(C)(C)CC(C)(C)C)ccc1OCCOCC[N+](C)(C)Cc1ccccc1: Low
COc1ccc([C@@H]2CC(=O)c3c(O)cc(O)cc3O2)cc1O: Mid

Turning now to a further record.
[Q] Looking at CCCCCCCCCCCCC[N+](C)(C)Cc1ccccc1 , which class would you pick?
[A] Low

----------
assay: chemical genetic growth profiling, strain panel (AID 1159580);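 note: tested at 20 µM; growth read once vehicle control cultures reached saturation at 30 °C; 1 = growth at the plate median or of vehicle wells; lower values mean less growth of the strain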; conditions: S. cerevisiae deletion strains, growth OD, locus YCR088W, strain abp1, hits give low values
The campaign covered roughly 5,500 compounds. About 2,000 (36%) were called active. Roughly 18% stayed inconclusive and do not appear here. The list shows a part of the results.
measurement_type: normalized growth
Format: numeric value only, no unit, no commentary.

Please review the following examples before continuing.
COc1ccc2c(c1)[C@@]1(C)CCC(=O)C[C@H]1CC2: 0.978
CN=C(NC#N)NCCSCc1nc[nH]c1C: 0.998
CCOC(=O)c1ncn2c1CN(C)C(=O)c1cc(F)ccc1-2: 1.02
CN1CCCC(n2nc(Cc3ccc(Cl)cc3)c3ccccc3c2=O)CC1 (stereo unspecified): 0.991

Entry Cc1c(N(C)C)c(=O)n(-c2ccccc2)n1C , normalized growth reported as 1

Entry c1ccc(CC2=NCCN2)cc1 , normalized growth reported as 1.01

Entry CC1(C)S[C@@H]2[C@H](NC(=O)[C@H](NC(=O)N3CCNC3=O)c3ccccc3)C(=O)N2C1C(=O)O (stereo partly specified) , normalized growth reported as 0.985

----------
assay: chemical genetic growth profiling, strain panel (AID 1159580);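 note: tested at 20 µM; growth read once vehicle control cultures reached saturation at 30 °C; 1 = growth at the plate median or of vehicle wells; lower values mean less growth of the strain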; details: S. cerevisiae deletion strains, growth OD, locus YKL160W, strain elf1
About 2,000 (36%) of roughly 5,500 compounds were called active. Inconclusive results (about 18%) are left out. No stated cut-off is given here; in the data, active means normalized growth mostly below about 0.91 (no sharp cut-off); inconclusive means no clear call, values can overlap the other calls; inactive means mostly above about 0.92. Some of the results follow.
Select the correct class. Options are 1.0 = active, 0.0 = inactive and nothing else.

Before answering, review these 3 worked examples.
CC(C)(N=NC(C)(C)C(=N)N)C(=N)N: 0.0
C[N+](C)(C)CCOP(=O)([O-])OP(=O)(O)OC[C@H]1OC(n2ccc(N)nc2=O)[C@H](O)[C@@H]1O (stereo partly drawn): 0.0
CCCCCCCC/C=C/CCCCCCCCOP(=O)([O-])OCC[N+](C)(C)C: 1.0

[Q] Tell me the assay call for CC(C)=CCc1c(O)cc2oc(C)cc(=O)c2c1O please.
[A] 0.0

[Q] Tell me the assay call for CC[C@H]1OC(=O)C[C@@H](O)[C@H](C)[C@@H](O[C@@H]2O[C@H](C)[C@@H](O[C@H]3C[C@@](C)(O)[C@@H](O)[C@H](C)O3)[C@H](N(C)C)[C@H]2O)[C@@H](CC=O)C[C@@H](C)C(=O)/C=C/C(C)=C/[C@@H]1CO[C@@H]1O[C@H](C)[C@@H](O)[C@@H](OC)[C@H]1OC please.
[A] 0.0

[Q] Tell me the assay call for CC(C)(C)CC(C)(C)c1ccc(OCCOCC[N+](C)(C)Cc2ccccc2)cc1 please.
[A] 1.0

[Q] Tell me the assay call for O=C1C[C@@H](c2ccc(O)cc2)Oc2cc(O)cc(O)c21 please.
[A] 0.0

[Q] Tell me the assay call for O=C1CC(c2ccc(O)c(O)c2)Oc2cc(O)cc(O)c21 (stereo not drawn) please.
[A] 0.0

----------
assay: chemical genetic growth profiling, strain panel (AID 1159580);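 note: tested at 20 µM; growth read once vehicle control cultures reached saturation at 30 °C; 1 = growth at the plate median or of vehicle wells; lower values mean less growth of the strain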; conditions: S. cerevisiae deletion strains, growth OD, locus YJL128C, strain PBS2, hits give low values
Out of some 5,500 compounds screened, about 2,000 (36%) were called active. Roughly 18% stayed inconclusive and do not appear here. Some of the results follow.
# normalized growth annotations
Format: numeric value only, no unit, no commentary.

C/C(=N/NC(N)=S)c1ccccn1: 0.975
O=C(Oc1cc(Cl)c(Cl)cc1Cl)C1c2ccccc2Oc2ccccc21: 0.887
O=C(Nc1c(Br)c(C2CC2)nn1-c1ccccc1)C(Cl)(Cl)Cl: 0.908
NCCCN=c1ccc2c3c1c(O)c1c(O)ccc(=O)c1c3[nH]n2CCNCCO: 0.957
NC(N)=Nc1nc(-c2cc(Cl)sc2Cl)cs1: 0.922

Entry CC(C)(C)C1=NN(c2nc3ccc(Cl)cc3s2)C(=O)C1 , normalized growth reported as 0.103

Entry Cc1c(Cl)cccc1NC(=S)N1CCCN(c2nc3ccc(Cl)cc3s2)CC1 , normalized growth reported as 0.957

Entry S=C(Nc1cc(-c2cccs2)[nH]n1)Nc1ccccc1Cl , normalized growth reported as 0.908

Entry N#C/C(=N/Nc1ccccc1Cl)S(=O)(=O)c1ccc(Cl)cc1 , normalized growth reported as 0.944

Entry O=C(Nc1cc(Cl)cc(Cl)c1)Nc1cc(-c2cccs2)[nH]n1 , normalized growth reported as 0.982

Entry Cc1ccccc1C(=O)N1CCc2c([nH]c3ccccc23)C1C(F)(F)F (configuration not stated) , normalized growth reported as 0.927
